Catalogue of Ki readings, one per entry.
Molecular target: Drosophila melanogaster AgmNAT (CG15766), wild-type (Drosophila melanogaster, UniProt Q9W469)
Sequence (Q9W469 entry or part of it): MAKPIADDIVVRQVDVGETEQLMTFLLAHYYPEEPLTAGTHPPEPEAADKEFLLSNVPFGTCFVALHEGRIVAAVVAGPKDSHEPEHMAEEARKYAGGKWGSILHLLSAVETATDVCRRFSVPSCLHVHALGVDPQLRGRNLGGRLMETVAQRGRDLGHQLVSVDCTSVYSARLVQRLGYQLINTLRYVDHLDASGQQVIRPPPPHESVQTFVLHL
Test: AgmNAT dead-end and product inhibition analysis
Assay type: biochemical
Conditions: varied substrate agmatine, constant acetyl-CoA (0.1 mM; 104 µM); read-out: Ki,s
Procedure: Initial velocities were determined by varying the concentration of one substrate, while holding the other substrate at a fixed concentration. […]
Metric Name: Ki

| Structure Smiles | Reported Measurement |
| --- | --- |
| COC(=O)[C@@H](N)CCCN=C(N)N | 1500 µM |
| NC(N)=NCCCCN=C(N)N | 28 µM |
| CCCCCCCC/C=C\CCCCCCCC(=O)SCCNC(=O)CCNC(=O)[C@H](O)C(C)(C)COP(=O)(O)OP(=O)(O)OC[C@H]1O[C@@H](n2cnc3c(N)ncnc32)[C@H](O)[C@@H]1OP(=O)(O)O | 67 µM |

====

Target: UniProt:Q9W469
Assay: AgmNAT dead-end and product inhibition analysis
Type: biochemical
Conditions: varied substrate acetyl-CoA, constant agmatine (0.3 mM); read-out: Ki,s

| Structure Smiles | Ki, µM |
| --- | --- |
| CCCCCCCC/C=C\CCCCCCCC(=O)SCCNC(=O)CCNC(=O)[C@H](O)C(C)(C)COP(=O)(O)OP(=O)(O)OC[C@H]1O[C@@H](n2cnc3c(N)ncnc32)[C@H](O)[C@@H]1OP(=O)(O)O | 19 |

====

Target: Drosophila melanogaster AgmNAT (CG15766), wild-type (Drosophila melanogaster, UniProt Q9W469)
Assay: AgmNAT dead-end and product inhibition analysis
Assay type: biochemical
Conditions: varied substrate acetyl-CoA, constant agmatine (0.3 mM); read-out: Ki,i
pKi: −log10 of the molar value.
Metric Name: pKi

| Structure Smiles | Metric Name | Reported Measurement |
| --- | --- | --- |
| NC(N)=NCCCCN=C(N)N | pKi | 4.47 |
| COC(=O)[C@@H](N)CCCN=C(N)N | pKi | 2.54 |

====

Target: UniProt:Q9W469
Assay: AgmNAT dead-end and product inhibition analysis
Assay type: biochemical
Details: varied substrate agmatine, constant acetyl-CoA (0.1 mM; 104 µM); read-out: Ki,i
pKi: −log10 of the molar value.

| Structure Smiles | pKi |
| --- | --- |
| CCCCCCCC/C=C\CCCCCCCC(=O)SCCNC(=O)CCNC(=O)[C@H](O)C(C)(C)COP(=O)(O)OP(=O)(O)OC[C@H]1O[C@@H](n2cnc3c(N)ncnc32)[C@H](O)[C@@H]1OP(=O)(O)O | 4.17 |

====

Molecular target: Drosophila melanogaster AgmNAT (CG15766), wild-type (Drosophila melanogaster)
Assay: AgmNAT steady-state kinetics, coenzyme A release with Ellman's reagent (DTNB)
Format: biochemical
Details: acyl-CoA varied, 5 mM agmatine, 300 mM Tris-HCl pH 8.5, 150 µM DTNB; read-out: Km,app
Sorting guide: entries reporting Km beneath 70 µM go in the 1.0 pile, the rest go in the 0.0 pile.

| Compound | Category |
| --- | --- |
| CCCC(=O)SCCNC(=O)CCNC(=O)[C@H](O)C(C)(C)COP(=O)(O)OP(=O)(O)OC[C@H]1O[C@@H](n2cnc3c(N)ncnc32)[C@H](O)[C@@H]1OP(=O)(O)O | 1.0 |
| CC(=O)SCCNC(=O)CCNC(=O)[C@H](O)C(C)(C)COP(=O)(O)OP(=O)(O)OC[C@H]1O[C@@H](n2cnc3c(N)ncnc32)[C@H](O)[C@@H]1OP(=O)(O)O | 0.0 |
| CCCCCC(=O)SCCNC(=O)CCNC(=O)C(O)C(C)(C)COP(=O)(O)OP(=O)(O)OC[C@H]1O[C@@H](n2cnc3c(N)ncnc32)[C@H](O)[C@@H]1OP(=O)(O)O (some centres unmarked) | 0.0 |
| CCCCCCCC(=O)SCCNC(=O)CCNC(=O)[C@H](O)C(C)(C)COP(=O)(O)OP(=O)(O)OC[C@H]1O[C@@H](n2cnc3c(N)ncnc32)[C@H](O)[C@@H]1OP(=O)(O)O | 0.0 |

====

Molecular target: Drosophila melanogaster AgmNAT (CG15766), wild-type (Drosophila melanogaster, UniProt Q9W469)
Assay: AgmNAT dead-end and product inhibition analysis
Type: biochemical
Details: varied substrate acetyl-CoA, constant agmatine (0.3 mM); listed as arginine methyl ester; read-out: Ki,i
pKi: −log10 of the molar value.

| Structure Smiles | pKi |
| --- | --- |
| COC(=O)[C@@H](N)CCCN=C(N)N | ≤ 3.00 |

====

Molecular target: Drosophila melanogaster AgmNAT (CG15766), wild-type (Drosophila melanogaster, UniProt Q9W469)
Assay: AgmNAT steady-state kinetics, coenzyme A release with Ellman's reagent (DTNB)
Format: biochemical
Conditions: acyl-CoA varied, 5 mM agmatine, 300 mM Tris-HCl pH 8.5, 150 µM DTNB

| Compound | kcat,app [s⁻¹] |
| --- | --- |
| CCCCCCCCCC(=O)SCCNC(=O)CCNC(=O)[C@H](O)C(C)(C)COP(=O)(O)OP(=O)(O)OC[C@H]1O[C@@H](n2cnc3c(N)ncnc32)[C@H](O)[C@@H]1OP(=O)(O)O | 0.16 |
| CC(=O)SCCNC(=O)CCNC(=O)[C@H](O)C(C)(C)COP(=O)(O)OP(=O)(O)OC[C@H]1O[C@@H](n2cnc3c(N)ncnc32)[C@H](O)[C@@H]1OP(=O)(O)O | 23 |
| CCCC(=O)SCCNC(=O)CCNC(=O)[C@H](O)C(C)(C)COP(=O)(O)OP(=O)(O)OC[C@H]1O[C@@H](n2cnc3c(N)ncnc32)[C@H](O)[C@@H]1OP(=O)(O)O | 3.3 |
| CCCCCC(=O)SCCNC(=O)CCNC(=O)C(O)C(C)(C)COP(=O)(O)OP(=O)(O)OC[C@H]1O[C@@H](n2cnc3c(N)ncnc32)[C@H](O)[C@@H]1OP(=O)(O)O (some centres unmarked) | 1.1 |
| CCCCCCCC(=O)SCCNC(=O)CCNC(=O)[C@H](O)C(C)(C)COP(=O)(O)OP(=O)(O)OC[C@H]1O[C@@H](n2cnc3c(N)ncnc32)[C@H](O)[C@@H]1OP(=O)(O)O | 0.61 |
